test_system: HCN1 (Homo sapiens)
Construct: expressed in transfected cells
protocol_text: HCN1 automated patch clamp current inhibition assay (Ionworks Barracuda)
Format: cell-based
experimental_setup: HEK-293 cells stably expressing HCN1; current inhibition during a hyperpolarizing pulse of -100 mV
Below, each of the compounds is paired with its reported IC50 value.
endpoint_label: IC50 (nM)

1. COc1cccc(C#Cc2nc(C(N)=O)n(-c3ccc(C)nc3)c2C)c1	460
2. Cc1ccc(-n2c(C(N)=O)nc(C#Cc3ccnc(Cl)c3C)c2C)cn1	159
3. Cc1ccc(-n2c(C(N)=O)nc(C#Cc3ccnc(C(F)(F)F)c3)c2C)cn1	833
4. Cc1ccc(-n2c(C(N)=O)nc(C#Cc3cc(Cl)ccn3)c2C)cn1	4100

----------
As shown below, each of these compounds has a reported pIC50 value.
test_system: HCN1 (Homo sapiens)
Construct: expressed in transfected cells
Sequence (O60741 1-890): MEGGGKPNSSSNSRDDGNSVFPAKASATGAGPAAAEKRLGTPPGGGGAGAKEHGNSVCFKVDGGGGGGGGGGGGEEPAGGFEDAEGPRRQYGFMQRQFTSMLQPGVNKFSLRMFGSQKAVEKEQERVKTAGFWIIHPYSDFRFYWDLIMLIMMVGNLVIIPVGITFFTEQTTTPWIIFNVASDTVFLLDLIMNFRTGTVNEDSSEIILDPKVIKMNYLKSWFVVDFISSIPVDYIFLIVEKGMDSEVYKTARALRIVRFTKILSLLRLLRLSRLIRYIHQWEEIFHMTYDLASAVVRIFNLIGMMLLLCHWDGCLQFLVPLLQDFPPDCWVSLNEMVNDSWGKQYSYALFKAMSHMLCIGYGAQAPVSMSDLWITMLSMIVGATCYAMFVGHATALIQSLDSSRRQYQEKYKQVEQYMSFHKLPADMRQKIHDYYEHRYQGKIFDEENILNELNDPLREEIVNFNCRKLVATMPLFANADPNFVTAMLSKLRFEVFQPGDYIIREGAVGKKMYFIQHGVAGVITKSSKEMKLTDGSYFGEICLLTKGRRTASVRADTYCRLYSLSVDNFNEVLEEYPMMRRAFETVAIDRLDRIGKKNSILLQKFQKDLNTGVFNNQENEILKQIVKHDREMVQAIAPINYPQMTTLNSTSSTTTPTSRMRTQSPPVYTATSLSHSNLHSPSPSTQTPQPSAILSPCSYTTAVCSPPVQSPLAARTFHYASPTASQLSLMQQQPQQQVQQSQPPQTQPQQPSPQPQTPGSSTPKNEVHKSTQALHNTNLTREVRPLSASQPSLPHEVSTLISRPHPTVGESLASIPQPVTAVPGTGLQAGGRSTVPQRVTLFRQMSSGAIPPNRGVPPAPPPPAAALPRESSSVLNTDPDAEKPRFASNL
protocol_text: HCN1 automated patch clamp current inhibition assay (Ionworks Barracuda)
Assay type: cell-based
experimental_setup: HEK-293 cells stably expressing HCN1; current inhibition during a hyperpolarizing pulse of -100 mV
pIC50: −log10 of the molar value.
endpoint_label: pIC50

1) Cc1ccc(-n2c(C(N)=O)nc(C#Cc3ccncc3)c2C)cn1	4.95
2) Cc1ccc(-n2c(C(N)=O)nc(C#Cc3ccnc(F)c3)c2C)cn1	6.00
3) Cc1c(Cl)cccc1C#Cc1nc(C(N)=O)n(-c2cccnc2)c1C	7.06
4) Cc1ccc(-c2c(C(N)=O)nc(C#Cc3cccc(Cl)c3)n2C)cn1	7.00
5) Cc1ccc(-n2c(C(N)=O)nc(C#Cc3cc(Cl)ncn3)c2C)cn1	5.19
6) Cc1ccc(-n2c(C(N)=O)nc(C#Cc3ccc(Cl)cc3)c2C)cn1	6.29
7) Cc1ccc(-n2c(C(N)=O)nc(C#Cc3ccnc(Cl)c3F)c2C)cn1	6.76
8) Cc1ccc(-n2c(C(N)=O)nc(C#Cc3ccncc3F)c2C)cn1	5.62
9) COc1ccc(-n2c(C(N)=O)nc(C#Cc3ccnc(Cl)c3C)c2C)cn1	7.29
10) Cc1ccc(-n2c(C(N)=O)nc(C#Cc3cc(Cl)ncc3F)c2C)cn1	6.53
11) Cc1ccc(-n2c(C(N)=O)nc(C#Cc3ccnc(Cl)c3)c2C)cc1	6.63
12) Cc1cccc(C#Cc2nc(C(N)=O)n(-c3ccc(C)nc3)c2C)c1	6.24
13) Cc1ccc(-n2c(C(N)=O)nc(C#Cc3ccnc(Cl)c3C)c2C)nc1	6.72
14) Cc1ccc(-n2c(C(N)=O)nc(C#Cc3cccc(Cl)n3)c2C)cn1	5.71
15) Cc1c(C#Cc2ccnc(Cl)c2)nc(C(N)=O)n1-c1cccc(Cl)c1	5.50
16) Cc1ccc(-c2c(C(N)=O)nc(C#Cc3cccc(Cl)c3C)n2C)cn1	6.64
17) Cc1ccc(-n2cc(C#Cc3ccnc(Cl)c3)nc2C(N)=O)cn1	5.60
18) Cc1ccc(-n2c(C(N)=O)nc(C#Cc3cccnc3)c2C)cn1	5.07
19) Cc1ccc(-n2c(C(N)=O)nc(C#Cc3ccccc3)c2C)cc1	5.51
20) Cc1ccc(-n2c(C(N)=O)nc(C#Cc3ccnc(Cl)c3)c2C)cn1	6.59
21) Cc1ccc(-n2c(C(N)=O)nc(C#Cc3ccnc(C)c3)c2C)cn1	5.22
22) Cc1ccc(-n2c(C(N)=O)cc(C#Cc3ccnc(Cl)c3)c2C)cn1	6.64
23) Cc1cnc(-n2c(C(N)=O)nc(C#Cc3ccnc(Cl)c3C)c2C)cn1	6.52
24) NC(=O)c1nc(C#Cc2ccnc(Cl)c2)cn1-c1ccc(F)cc1	5.60
25) Cc1ccc(-n2c(C(N)=O)nc(C#Cc3cccc4c3OCO4)c2C)cn1	6.04
26) Cc1ccc(-n2c(C(N)=O)nc(C#Cc3cccc(C#N)c3)c2C)cn1	6.62
27) Cc1ccc(-n2c(C(N)=O)nc(C#Cc3ccnc(Cl)n3)c2C)cn1	5.62
28) Cc1ccc(-c2c(C(N)=O)nc(C#Cc3ccnc(Cl)c3)n2C)cn1	6.37
29) Cc1c(C#Cc2nc(C(N)=O)n(-c3ccc(Cl)nc3)c2C)ccnc1Cl	6.62
30) Cc1ccc(-c2c(C(N)=O)nc(C#Cc3ccnc(Cl)c3C)n2C)cn1	6.02
31) Cc1ccc(-n2c(C(N)=O)nc(C#Cc3cncc(Cl)c3)c2C)cn1	5.52
32) Cc1c(C#Cc2ccnc(Cl)c2)nc(C(N)=O)n1-c1ccc(F)cc1F	4.76
33) Cc1c(C#Cc2ccnc(Cl)c2)nc(C(N)=O)n1-c1ccc(Cl)cc1	6.42
34) Cc1ccc(-n2c(C(N)=O)nc(C#Cc3cccc(Cl)c3)c2C)cn1	6.65
35) Cc1cncc(-n2c(C(N)=O)nc(C#Cc3ccnc(Cl)c3C)c2C)c1	6.90
36) Cc1ccc(-n2c(C(N)=O)nc(C#Cc3ccnc(Cl)c3C)c2C)nn1	6.82
37) Cc1ccc(-n2c(C(N)=O)nc(C#Cc3csc(Cl)c3)c2C)cn1	7.00

----------
test_system: HCN2 (Homo sapiens, UniProt Q9UL51)
Sequence (Q9UL51 whole entry): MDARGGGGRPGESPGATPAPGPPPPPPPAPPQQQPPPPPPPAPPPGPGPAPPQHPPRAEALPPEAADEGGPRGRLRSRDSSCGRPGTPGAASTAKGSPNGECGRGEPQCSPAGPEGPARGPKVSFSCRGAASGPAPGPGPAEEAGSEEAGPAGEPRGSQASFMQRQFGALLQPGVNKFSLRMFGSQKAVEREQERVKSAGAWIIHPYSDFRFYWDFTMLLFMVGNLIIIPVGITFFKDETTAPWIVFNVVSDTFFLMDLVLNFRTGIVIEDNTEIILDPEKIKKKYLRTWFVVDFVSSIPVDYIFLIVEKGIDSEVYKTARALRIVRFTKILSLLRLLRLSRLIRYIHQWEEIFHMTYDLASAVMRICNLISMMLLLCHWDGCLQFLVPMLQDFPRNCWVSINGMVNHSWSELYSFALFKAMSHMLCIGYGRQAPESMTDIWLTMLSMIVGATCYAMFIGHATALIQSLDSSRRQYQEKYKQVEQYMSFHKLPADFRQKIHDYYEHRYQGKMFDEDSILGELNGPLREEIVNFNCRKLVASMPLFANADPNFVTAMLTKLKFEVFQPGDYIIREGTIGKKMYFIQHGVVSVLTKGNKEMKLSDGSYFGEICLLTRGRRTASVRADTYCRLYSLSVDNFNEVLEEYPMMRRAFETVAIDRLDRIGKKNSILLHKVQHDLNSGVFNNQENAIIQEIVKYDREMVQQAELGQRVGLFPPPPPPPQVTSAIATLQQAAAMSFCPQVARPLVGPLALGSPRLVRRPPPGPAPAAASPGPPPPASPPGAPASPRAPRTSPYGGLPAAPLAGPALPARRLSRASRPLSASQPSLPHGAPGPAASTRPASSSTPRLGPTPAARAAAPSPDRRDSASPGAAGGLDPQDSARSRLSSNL
protocol_text: HCN2 automated patch clamp current inhibition assay (Ionworks Barracuda)
experimental_setup: HEK-293 cells stably expressing HCN2; current inhibition during a hyperpolarizing pulse of -100 mV
pIC50: −log10 of the molar value.
endpoint_label: pIC50

1) Cc1c(C#Cc2nc(C(N)=O)n(-c3ccc(Cl)nc3)c2C)ccnc1Cl	< 4.40
2) Cc1ccc(-n2c(C(N)=O)nc(C#Cc3ccnc(Cl)n3)c2C)cn1	< 4.40
3) Cc1ccc(-n2c(C(N)=O)nc(C#Cc3ccnc(Cl)c3C)c2C)nc1	< 4.40
4) Cc1ccc(-n2c(C(N)=O)nc(C#Cc3cccc(Cl)c3)c2C)cn1	4.51
5) NC(=O)c1nc(C#Cc2ccnc(Cl)c2)cn1-c1ccc(F)cc1	< 4.40

----------
test_system: HCN3 (Homo sapiens)
Sequence (Q9P1Z3 whole entry): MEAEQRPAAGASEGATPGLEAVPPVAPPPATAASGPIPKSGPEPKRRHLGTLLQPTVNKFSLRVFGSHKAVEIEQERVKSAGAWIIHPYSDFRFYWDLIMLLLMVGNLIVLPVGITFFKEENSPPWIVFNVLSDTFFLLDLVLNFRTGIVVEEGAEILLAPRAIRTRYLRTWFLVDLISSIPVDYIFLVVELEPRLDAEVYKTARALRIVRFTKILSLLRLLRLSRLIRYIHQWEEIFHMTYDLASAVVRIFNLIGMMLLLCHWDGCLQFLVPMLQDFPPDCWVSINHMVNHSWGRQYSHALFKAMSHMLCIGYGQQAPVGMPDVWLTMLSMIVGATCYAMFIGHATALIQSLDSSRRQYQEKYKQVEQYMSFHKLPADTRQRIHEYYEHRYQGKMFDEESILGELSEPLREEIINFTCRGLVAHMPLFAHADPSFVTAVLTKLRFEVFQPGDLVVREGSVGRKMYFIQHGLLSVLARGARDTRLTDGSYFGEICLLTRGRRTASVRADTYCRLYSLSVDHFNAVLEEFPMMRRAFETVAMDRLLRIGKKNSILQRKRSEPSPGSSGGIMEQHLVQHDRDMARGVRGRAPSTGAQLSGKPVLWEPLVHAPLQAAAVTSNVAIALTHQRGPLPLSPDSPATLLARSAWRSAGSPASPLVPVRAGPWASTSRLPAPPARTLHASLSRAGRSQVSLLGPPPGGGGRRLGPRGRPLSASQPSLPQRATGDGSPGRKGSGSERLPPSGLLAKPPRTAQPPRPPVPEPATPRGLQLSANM
protocol_text: HCN3 automated patch clamp current inhibition assay (Ionworks Barracuda)
experimental_setup: HEK-293 cells stably expressing HCN3; current inhibition during a hyperpolarizing pulse of -100 mV
endpoint_label: IC50

1. Cc1ccc(-n2c(C(N)=O)nc(C#Cc3cccc4c3OCO4)c2C)cn1	> 40 µM
2. Cc1cncc(-n2c(C(N)=O)nc(C#Cc3ccnc(Cl)c3C)c2C)c1	20.5 µM
3. Cc1c(C#Cc2ccnc(Cl)c2)nc(C(N)=O)n1-c1ccc(F)cc1F	> 40 µM
4. Cc1cccc(C#Cc2nc(C(N)=O)n(-c3ccc(C)nc3)c2C)c1	> 40 µM
5. Cc1ccc(-n2cc(C#Cc3ccnc(Cl)c3)nc2C(N)=O)cn1	> 40 µM
6. Cc1ccc(-n2c(C(N)=O)nc(C#Cc3cccc(Cl)n3)c2C)cn1	> 40 µM
7. Cc1ccc(-n2c(C(N)=O)nc(C#Cc3ccnc(Cl)c3F)c2C)cn1	> 40 µM
8. Cc1ccc(-c2c(C(N)=O)nc(C#Cc3cccc(Cl)c3)n2C)cn1	4.9 µM
9. Cc1ccc(-n2c(C(N)=O)cc(C#Cc3ccnc(Cl)c3)c2C)cn1	23.5 µM

----------
test_system: HCN2 (Homo sapiens)
protocol_text: HCN2 automated patch clamp current inhibition assay (Ionworks Barracuda)
experimental_setup: HEK-293 cells stably expressing HCN2; current inhibition during a hyperpolarizing pulse of -100 mV
pIC50: −log10 of the molar value.
endpoint_label: pIC50

1) Cc1ccc(-n2c(C(N)=O)nc(C#Cc3cccnc3)c2C)cn1	< 4.40
2) Cc1ccc(-n2c(C(N)=O)nc(C#Cc3ccnc(C)c3)c2C)cn1	< 4.40
3) COc1ccc(-n2c(C(N)=O)nc(C#Cc3ccnc(Cl)c3C)c2C)cn1	< 4.40
4) Cc1ccc(-c2c(C(N)=O)nc(C#Cc3ccnc(Cl)c3)n2C)cn1	< 4.40
5) Cc1ccc(-n2c(C(N)=O)cc(C#Cc3ccnc(Cl)c3)c2C)cn1	< 4.40
6) Cc1ccc(-n2c(C(N)=O)nc(C#Cc3ccnc(Cl)c3)c2C)cn1	< 4.40
7) Cc1c(C#Cc2ccnc(Cl)c2)nc(C(N)=O)n1-c1cccc(Cl)c1	< 4.40
8) Cc1ccc(-n2c(C(N)=O)nc(C#Cc3ccnc(Cl)c3C)c2C)nn1	< 4.40
9) Cc1ccc(-n2c(C(N)=O)nc(C#Cc3ccc(Cl)cc3)c2C)cn1	< 4.40
